Entry source: patent US20240327535A1

Catalogue of binders with associated EC50 (read off the curve)
SYSTEM_TESTED: T1, human BCMA on NCI-H929, OPM2 and Raji cells (human, UniProt Q02223 1-184)
T1 construct: endogenous BCMA of human cell lines; also called TNFRSF17; CD269
T1 chain: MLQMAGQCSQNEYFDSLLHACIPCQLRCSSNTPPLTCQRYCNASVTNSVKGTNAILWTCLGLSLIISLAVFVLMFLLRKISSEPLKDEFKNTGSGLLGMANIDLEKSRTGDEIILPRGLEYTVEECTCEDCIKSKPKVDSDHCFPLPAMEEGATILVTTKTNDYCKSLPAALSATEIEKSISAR
ASSAY_DETAILS: flow cytometry on NCI-H929 cells (BCMA high), fluorescent anti-human IgG1 secondary antibody, MFI against test article concentration

### Prompt EC50 (read off the curve) lookup needed for AB200-ADL1-D12-05 (antibody, human IgG1, kappa, V domains shown, ADL1-D12 linker-payload on cysteine residues of the antibody, DAR 4.24, antibody-drug conjugate) VH: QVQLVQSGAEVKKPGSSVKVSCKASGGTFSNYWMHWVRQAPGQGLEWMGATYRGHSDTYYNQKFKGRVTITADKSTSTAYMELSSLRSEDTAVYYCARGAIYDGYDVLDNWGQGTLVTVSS VL: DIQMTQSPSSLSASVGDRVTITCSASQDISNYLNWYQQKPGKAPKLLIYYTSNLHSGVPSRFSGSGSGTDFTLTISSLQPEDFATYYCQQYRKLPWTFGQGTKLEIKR , thanks.
### Response ~9 nM

Continuing:
### Prompt EC50 (read off the curve) lookup needed for AB200-ADL1-D2-02 (antibody, human IgG1, kappa, V domains shown, ADL1-D2 linker-payload on cysteine residues of the antibody, DAR 3.92, antibody-drug conjugate; also called AB200 ADC incorporating the ADL1-D2 linker-payload) VH: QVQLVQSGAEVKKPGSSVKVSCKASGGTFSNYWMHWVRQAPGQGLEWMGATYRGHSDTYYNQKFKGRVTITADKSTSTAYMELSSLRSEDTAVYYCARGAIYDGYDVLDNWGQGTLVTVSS VL: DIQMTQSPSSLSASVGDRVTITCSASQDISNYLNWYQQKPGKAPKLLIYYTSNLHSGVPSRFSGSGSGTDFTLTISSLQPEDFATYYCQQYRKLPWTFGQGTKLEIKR , thanks.
### Response ~9 nM
